Molecular target: β-glucocerebrosidase (Mus musculus, UniProt P17439)
Construct: mouse liver microsome as an enzyme source; from tissue; host or cells: mouse liver microsome
Sequence (P17439 20-515): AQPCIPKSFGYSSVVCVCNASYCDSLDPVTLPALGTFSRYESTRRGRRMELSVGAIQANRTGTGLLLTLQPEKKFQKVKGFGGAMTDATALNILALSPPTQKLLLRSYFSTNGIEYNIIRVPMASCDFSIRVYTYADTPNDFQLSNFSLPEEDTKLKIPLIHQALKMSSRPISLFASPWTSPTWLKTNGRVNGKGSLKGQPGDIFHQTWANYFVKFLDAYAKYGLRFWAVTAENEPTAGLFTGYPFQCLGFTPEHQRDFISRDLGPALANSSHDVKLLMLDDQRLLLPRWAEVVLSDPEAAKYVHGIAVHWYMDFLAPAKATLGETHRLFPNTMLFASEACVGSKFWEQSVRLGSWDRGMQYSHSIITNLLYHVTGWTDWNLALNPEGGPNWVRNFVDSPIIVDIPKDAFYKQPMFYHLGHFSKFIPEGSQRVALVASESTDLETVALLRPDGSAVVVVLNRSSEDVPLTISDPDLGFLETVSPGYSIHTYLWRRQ
Experiment: β-glucocerebrosidase inhibition with 4-methyl-umbelliferyl glucoside as substrate
Format: biochemical
Details: mouse liver microsome
measured-endpoint: IC50 (nM)
The figure you give is taken to be in nM; do not add the unit.

{"structure": "CCCCCCCCCCCCC/C=C/[C@@H](O)[C@H](CN[C@@H]1C=C(CO)[C@@H](O)[C@H](O)[C@H]1O)NC(=O)CCCCCCCCCCCCCCC", "IC50 [nM]": 580}

// next item, IC50 requested
The reported β-glucocerebrosidase (Mus musculus, UniProt P17439) IC50 of `CCCCCCCCCCCCC/C=C\[C@@H](O)[C@H](CN[C@@H]1C=C(CO)[C@@H](O)[C@H](O)[C@H]1O)NC(=O)CCCCCCCCCCCCCCC` is 440

* * *

Target: β-galactocerebrosidase (Mus musculus, UniProt P54818)
Construct: mouse brain microsome as an enzyme source; from tissue; host or cells: mouse brain microsome
Sequence (P54818 43-684): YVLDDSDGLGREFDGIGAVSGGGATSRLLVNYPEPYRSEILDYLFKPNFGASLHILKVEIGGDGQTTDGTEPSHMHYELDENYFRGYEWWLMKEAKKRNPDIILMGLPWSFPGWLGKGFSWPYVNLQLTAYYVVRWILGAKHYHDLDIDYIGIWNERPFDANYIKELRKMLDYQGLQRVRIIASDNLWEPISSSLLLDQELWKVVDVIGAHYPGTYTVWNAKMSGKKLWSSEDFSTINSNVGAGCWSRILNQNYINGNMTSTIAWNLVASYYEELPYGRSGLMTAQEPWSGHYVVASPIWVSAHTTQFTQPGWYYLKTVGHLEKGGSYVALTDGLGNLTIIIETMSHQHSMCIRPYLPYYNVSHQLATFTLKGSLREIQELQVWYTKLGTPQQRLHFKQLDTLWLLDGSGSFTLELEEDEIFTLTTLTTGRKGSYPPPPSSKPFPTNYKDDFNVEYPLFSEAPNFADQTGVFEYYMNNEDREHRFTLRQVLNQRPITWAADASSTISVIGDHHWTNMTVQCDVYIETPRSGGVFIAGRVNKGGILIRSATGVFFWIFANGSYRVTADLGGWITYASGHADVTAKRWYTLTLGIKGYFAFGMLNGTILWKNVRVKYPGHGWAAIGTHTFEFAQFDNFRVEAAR
Assay: β-galactocerebrosidase inhibition with NBD-galactocerebroside (fluorescence-labeled natural substrate), mouse brain microsome
Format: biochemical
Details: 10 μM; NBD-galactocerebroside; mouse brain microsome
inhibition at 10 µM overview
Give the quantity in %, number only.

{"compound": "CCCCCCCCCCCCC/C=C/[C@@H](O)[C@H](CN[C@@H]1C[C@H](CO)[C@@H](O)[C@H](O)[C@H]1O)NC(=O)CCCCCCCCCCCCCCC [Compound C-1, reference compound]", "target-or-system": "β-galactocerebrosidase (Mus musculus, UniProt P54818)", "value-units": "%", "inhibition at 10 µM": 0}
{"compound": "CCCCCCCCCCCCC/C=C/[C@@H](O)[C@H](CN[C@@H]1C[C@H](CO)[C@H](O)[C@H](O)[C@H]1O)NC(=O)CCCCCCCCCCCCCCC [Compound C-2, reference compound]", "target-or-system": "β-galactocerebrosidase (Mus musculus, UniProt P54818)", "value-units": "%", "inhibition at 10 µM": 12.9}

Please look at the following compound next.
Record CCCCCCCCCCCCC/C=C/[C@@H](O)[C@H](CN[C@@H]1C=C(CO)[C@H](O)[C@H](O)[C@H]1O)NC(=O)CCCCCCCCCCCCCCC [Compound 2E] , field inhibition at 10 µM: 92.6

* * *

Target: β-glucocerebrosidase (Mus musculus)
Construct: mouse liver microsome as an enzyme source; from tissue; host or cells: mouse liver microsome
Experiment: β-glucocerebrosidase inhibition with NBD-glucocerebroside (fluorescence-labeled natural substrate), mouse liver microsome
Type: biochemical
Conditions: 10 μM; NBD-glucocerebroside; mouse liver microsome
Protocol: Glycosidase inhibitory effects of glycolipid analogs (1) The inhibitory effects of each of compounds 1E, 1Z, 2E and 2Z synthesized in Examples 1 to 4 on β-glucocerebrosidase and β-galactocerebrosidase were determined by using fluorescence-labeled natural substrates, i.e., 12-[N-methyl-N-(7-nitro-2-oxa-1,3-diaxol-4-yl)]aminododecanoic acid (NBD)-glucocerebroside and NBD-galactocrebroside. […] The inhibition (%) was determined in accordance with the following formula. […]
Each entry below lists one item and its recorded inhibition at 10 µM value.
// return numeric value only (unit: %, not printed)

Examples with their reported inhibition at 10 µM follow.
{"compound": "CCCCCCCCCCCCC/C=C/[C@@H](O)[C@H](CN[C@@H]1C[C@H](CO)[C@@H](O)[C@H](O)[C@H]1O)NC(=O)CCCCCCCCCCCCCCC [Compound C-1, reference compound]", "target-or-system": "β-glucocerebrosidase (Mus musculus)", "inhibition at 10 µM, %": 37.3}
{"compound": "CCCCCCCCCCCCC/C=C/[C@@H](O)[C@H](CN[C@@H]1C=C(CO)[C@H](O)[C@H](O)[C@H]1O)NC(=O)CCCCCCCCCCCCCCC", "target-or-system": "β-glucocerebrosidase (Mus musculus)", "inhibition at 10 µM, %": 0}
{"compound": "CCCCCCCCCCCCC/C=C\\[C@@H](O)[C@H](CN[C@@H]1C=C(CO)[C@@H](O)[C@H](O)[C@H]1O)NC(=O)CCCCCCCCCCCCCCC", "target-or-system": "β-glucocerebrosidase (Mus musculus)", "inhibition at 10 µM, %": 97.7}

Please find the next compound below.
The recorded inhibition at 10 µM for entry CCCCCCCCCCCCC/C=C/[C@@H](O)[C@H](CN[C@@H]1C[C@H](CO)[C@H](O)[C@H](O)[C@H]1O)NC(=O)CCCCCCCCCCCCCCC [Compound C-2, reference compound] equals 0

* * *

Target: β-glucocerebrosidase (Mus musculus)
Construct: mouse liver microsome as an enzyme source; from tissue; host or cells: mouse liver microsome
Experiment: β-glucocerebrosidase inhibition with 4-methyl-umbelliferyl glucoside as substrate
Assay type: biochemical
Conditions: 40 μM, mouse liver microsome
measured-endpoint: inhibition at 40 µM (%)
Numeric only. Scale: %

As a guide, the following entries are already answered.
{"molecule": "CCCCCCCCCCCCC/C=C/[C@@H](O)[C@H](CN[C@@H]1C[C@H](CO)[C@@H](O)[C@H](O)[C@H]1O)NC(=O)CCCCCCCCCCCCCCC [Compound C-1, reference compound]", "value-units": "%", "inhibition at 40 µM": 56}
{"molecule": "CCCCCCCCCCCCC/C=C/[C@@H](O)[C@H](CN[C@@H]1C=C(CO)[C@@H](O)[C@H](O)[C@H]1O)NC(=O)CCCCCCCCCCCCCCC", "value-units": "%", "inhibition at 40 µM": 97}
{"molecule": "CCCCCCCCCCCCC/C=C\\[C@@H](O)[C@H](CN[C@@H]1C=C(CO)[C@@H](O)[C@H](O)[C@H]1O)NC(=O)CCCCCCCCCCCCCCC", "value-units": "%", "inhibition at 40 µM": 99}

Item: `CCCCCCCCCCCCC/C=C/[C@@H](O)[C@H](CN[C@@H]1C=C(CO)[C@H](O)[C@H](O)[C@H]1O)NC(=O)CCCCCCCCCCCCCCC` | inhibition at 40 µM: 31

Entry CCCCCCCCCCCCC/C=C/[C@@H](O)[C@H](CO[C@@H]1C[C@H](CO)[C@@H](O)[C@H](O)[C@H]1O)NC(=O)CCCCCCCCCCCCCCC [Compound C-5, reference compound] — recorded inhibition at 40 µM = 0

GET /value?item= CCCCCCCCCCCCC/C=C/[C@@H](O)[C@H](CS[C@@H]1C[C@H](CO)[C@@H](O)[C@H](O)[C@H]1O)NC(=O)CCCCCCCCCCCCCCC [Compound C-6, reference compound] &field=inhibition at 40 µM returns 0

The molecule listed as `CCCCCCCCCCCCC/C=C\[C@@H](O)[C@H](CN[C@@H]1C=C(CO)[C@H](O)[C@H](O)[C@H]1O)NC(=O)CCCCCCCCCCCCCCC` has a reported inhibition at 40 µM of 43

* * *

Biological target: β-galactocerebrosidase
Assay: β-galactocerebrosidase inhibition, 4-methyl-umbelliferyl substrate
Conditions: mouse brain microsome; 4-methyl-umbelliferyl glucoside
measured-endpoint: IC50 (µM)
# output: bare number, implied unit µM

{"structure": "CCCCCCCCCCCCC/C=C/[C@@H](O)[C@H](CN[C@@H]1C=C(CO)[C@H](O)[C@H](O)[C@H]1O)NC(=O)CCCCCCCCCCCCCCC", "IC50 (µM)": 1.25}

Moving on to another compound below.
// field: IC50; key: `CCCCCCCCCCCCC/C=C\[C@@H](O)[C@H](CN[C@@H]1C=C(CO)[C@H](O)[C@H](O)[C@H]1O)NC(=O)CCCCCCCCCCCCCCC` ; value = 1.85
